From: ChEMBL document CHEMBL5120866

- Test system: BGC-823
- procedure_details: Antiproliferative activity against human BGC-823 cells assessed as cell growth inhibition incubated for 48 hrs by MTT assay
- Type: functional, cell-based
- assay_setup: BGC-823, 48 h
measurement_kind: pIC50
Field pIC50 (float): negative decimal logarithm of the concentration in molar.

structure_smiles=CCOC(=O)c1cnn(CCCOC(=O)[C@]2(C)CC[C@]3(C)CC[C@]4(C)C5=CC=C6C(=CC(=O)C(O)=C6C)[C@]5(C)CC[C@@]4(C)[C@@H]3C2)c1 measurement_kind=pIC50 assay_result=6.68
structure_smiles=CC1=C(O)C(=O)C=C2C1=CC=C1[C@@]2(C)CC[C@@]2(C)[C@@H]3C[C@](C)(C(=O)OCCCCn4cccn4)CC[C@]3(C)CC[C@]12C measurement_kind=pIC50 assay_result=6.33
structure_smiles=CC1=C(O)C(=O)C=C2C1=CC=C1[C@@]2(C)CC[C@@]2(C)[C@@H]3C[C@](C)(C(=O)OCCCCn4cc([N+](=O)[O-])cn4)CC[C@]3(C)CC[C@]12C measurement_kind=pIC50 assay_result=6.34

Ask | Consider the compound COC(=O)c1cnn(CCCOC(=O)[C@]2(C)CC[C@]3(C)CC[C@]4(C)C5=CC=C6C(=CC(=O)C(O)=C6C)[C@]5(C)CC[C@@]4(C)[C@@H]3C2)c1 and give its measured pIC50.
Reply | 6.55

Ask | And CC1=C(O)C(=O)C=C2C1=CC=C1[C@@]2(C)CC[C@@]2(C)[C@@H]3C[C@](C)(C(=O)OCCCCn4cc(C)cn4)CC[C@]3(C)CC[C@]12C ?
Reply | 6.37
